Biological target: GRIP2_7, Q9C0E4
Sequence (Q9C0E4 934-1023): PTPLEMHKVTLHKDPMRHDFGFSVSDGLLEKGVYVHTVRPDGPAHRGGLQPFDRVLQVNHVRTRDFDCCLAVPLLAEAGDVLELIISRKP
Test: holdup assay
Parameters: key: below the threshold = too weak to quantify, mostly under pKd 3.1 to 4
Settings: plain residues with an end cap or a label only (N-terminal biotin on a linker: ado-ado)
experimental endpoint: pKd

- binder: "AEASVACSLC [PTGIR, P43119]"
  pKd: "below the threshold"
- binder: "EDLEDEWEVI [TECPR2, O15040]"
  pKd: "below the threshold"
- binder: "PTPDLPQTRV [KLHDC7A, Q5VTJ3]"
  pKd: "below the threshold"
- binder: "RDPPAEWTRV [PTPN18, Q99952]"
  pKd: "below the threshold"
- binder: "EDGESWEYQI [TRPV6, Q9H1D0]"
  pKd: 3.61
- binder: "TRKRSGEAAV [PFKM, P08237]"
  pKd: "below the threshold"

Record DFLSTFHIRI [CIB2, O75838] , field pKd: 4.04

The recorded pKd for EDPRVEVTQF [SLC22A9, Q8IVM8] is below the threshold

The binder identified as LESTTVGTSV [KARS1, Q15046] registered its pKd at below the threshold

Note to self: pKd recorded for RSSGGDDFWF [KCNV1, Q6PIU1] was 4.59
